Test: aggregation and purification amounts of deglycosylated antibodies, before and after φ
Type: physicochemical
Conditions: based on 100 ml culture
MEASUREMENT LABEL: Fraction3, Before φ (mg)
Numbers only, in mg.

What does the data say about its Fraction3, Before φ? Entry: Deglyco-C3: deglycosylated clone 1 IgG; light chain CDR1 TGSSSNIGWSNVT (SEQ ID NO: 4) (antibody, V domains shown) VH: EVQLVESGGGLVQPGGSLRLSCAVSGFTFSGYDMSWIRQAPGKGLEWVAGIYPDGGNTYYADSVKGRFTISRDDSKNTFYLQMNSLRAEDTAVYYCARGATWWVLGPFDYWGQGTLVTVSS VL: DIQLTQSPSSLSASVGDRVTITCTGSSSNIGWSNVTWYQQKPGKAPKLLIYADSHRPSGVPSRFSGSGSGTDFTLTISSLQPEDFATYYCGAWDDSLSGYVFGQGTKVEIKR
0.580
